# Ki per entry
Biological target: recombinant LmNADK1 (Listeria monocytogenes serovar 1/2a, UniProt Q8Y8D7)
Sequence (Q8Y8D7 1-264): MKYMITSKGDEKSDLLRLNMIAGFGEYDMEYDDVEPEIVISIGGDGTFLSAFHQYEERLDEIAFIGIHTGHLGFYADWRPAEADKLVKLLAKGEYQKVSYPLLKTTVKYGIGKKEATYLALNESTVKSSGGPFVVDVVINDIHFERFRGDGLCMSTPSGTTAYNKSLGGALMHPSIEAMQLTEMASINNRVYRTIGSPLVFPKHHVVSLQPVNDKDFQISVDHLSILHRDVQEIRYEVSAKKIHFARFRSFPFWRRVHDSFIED
Assay: LmNADK1 inhibition, coupling assay (Ki measurements)
Conditions: competitive inhibition fit; 30 °C, pH 7.0; inhibitor 0, 10, 25 or 50 µM; 0-2 mM NAD; 0.1 µM LmNADK1
Please reply with the bare figure in µM and do not write the unit itself.

MOLECULE | MEASUREMENT UNITS | RECORDED VALUE
Nc1ncnc2c1ncn2C1OC(COCC#Cc2nc3c(N)ncnc3n2C2OC(CO)C(O)C2O)C(O)C1O (centres unmarked) [NKI1] | µM | 17.2

Annotate the molecule NCCCCNc1ncnc2c1ncn2C1OC(COCC#Cc2nc3c(N)ncnc3n2C2OC(CO)C(O)C2O)C(O)C1O (centres unmarked) [Compound 3] with its measured Ki.
52.2

Annotate the molecule NCCCC(=O)NCC1OC(n2c(C#CCOCC3OC(n4cnc5c(N)ncnc54)C(O)C3O)nc3c(N)ncnc32)C(O)C1O (centres unmarked) [Compound 4] with its measured Ki.
23.8

Annotate the molecule NCCCN(CC#Cc1nc2c(N)ncnc2n1C1OC(CO)C(O)C1O)CC1OC(n2cnc3c(N)ncnc32)C(O)C1O (centres unmarked) [Compound 5] with its measured Ki.
5.6

Annotate the molecule NCCNc1ncnc2c1ncn2C1OC(COCC#Cc2nc3c(N)ncnc3n2C2OC(CO)C(O)C2O)C(O)C1O (centres unmarked) [Compound 2] with its measured Ki.
347
